B1: EMD (parent)
chain: YQSKGYNDDYYEESYFTTRTYGEP

Variants of: B1
Assay: protein stability index of a GFP-peptide fusion (GPS, HEK-293T) (PSI 1-6); higher = more stable;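 further: lentivirally expressed fusions sorted by FACS into six bins by GFP to DsRed ratio, PSI derived from sequencing read proportions per bin multiplied by bin number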
Conditions: c terminus: a fixed tail appended
# maps each entry to its protein stability index

[
  {
    "VARIANT DESCRIPTION": "F16S",
    "protein stability index": 2.88
  },
  {
    "VARIANT DESCRIPTION": "D9I",
    "protein stability index": 1.57
  },
  {
    "VARIANT DESCRIPTION": "S14I",
    "protein stability index": 1.76
  },
  {
    "VARIANT DESCRIPTION": "R19I",
    "protein stability index": 2.09
  },
  {
    "VARIANT DESCRIPTION": "Y1V",
    "protein stability index": 3.67
  },
  {
    "VARIANT DESCRIPTION": "P24M",
    "protein stability index": 2.28
  },
  {
    "VARIANT DESCRIPTION": "K4M",
    "protein stability index": 2.32
  },
  {
    "VARIANT DESCRIPTION": "E12Y",
    "protein stability index": 1.79
  },
  {
    "VARIANT DESCRIPTION": "P24Q",
    "protein stability index": 2.52
  },
  {
    "VARIANT DESCRIPTION": "D8V",
    "protein stability index": 2.47
  },
  {
    "VARIANT DESCRIPTION": "G22Y",
    "protein stability index": 1.49
  },
  {
    "VARIANT DESCRIPTION": "T20V",
    "protein stability index": 2.1
  },
  {
    "VARIANT DESCRIPTION": "Y10A",
    "protein stability index": 2.2
  },
  {
    "VARIANT DESCRIPTION": "Y15M",
    "protein stability index": 2.42
  },
  {
    "VARIANT DESCRIPTION": "Y15W",
    "protein stability index": 2.24
  },
  {
    "VARIANT DESCRIPTION": "Q2V",
    "protein stability index": 1.9
  },
  {
    "VARIANT DESCRIPTION": "Y10N",
    "protein stability index": 2.64
  },
  {
    "VARIANT DESCRIPTION": "F16N",
    "protein stability index": 3.59
  },
  {
    "VARIANT DESCRIPTION": "E12G",
    "protein stability index": 1.84
  },
  {
    "VARIANT DESCRIPTION": "R19K",
    "protein stability index": 2.46
  },
  {
    "VARIANT DESCRIPTION": "Y21T",
    "protein stability index": 2.27
  },
  {
    "VARIANT DESCRIPTION": "G5S",
    "protein stability index": 2.9
  }
]
